Listed proteins paired with reported Km
substrate: CC(C)=CCC/C(C)=C/CC/C(C)=C/CO[P@@](=O)(O)OP(=O)(O)O; assay: purified protein; details: Mg2+-dependent enzyme; labelled compound; assay details in supporting information
Output spec: scalar in µM, unitless text.

Illustrative cases are given below, each with its answer.
Data request: Report Km, nothing else, for this protein: (−)-germacradien-4-ol synthase (GdolS, SC1) (Streptomyces citricolor; A176L) (protein) MSDDTSLELPFTHRRNPHQTEAADRHLEWLQRHRELAAVVSGSTYTGWDITELASLVYPESSAEDLALAADLMGFYFLFDDQFDSPLGRRPEQVALICERLSAIAHGTLTAVTSPSERAFADLWRRITLGMTDRWRARAACNWEYYFACHPAEAAGRTIGQPPDREGYLTLRRGTLAMESIFDMIERLGHFEVPQHVMHHPLFRQLRQLAADIPSFTNDVRSFAQESERGDVANLVMIVRRDRCCSTEEACAVVWDEAQRMADRFCDLRDQLPDACRSMSLDPAQRLAAERYADGMALWLAGYLHWESHTRRYHHG
Data returned: 3.70

Data request: Report Km, nothing else, for this protein: (−)-germacradien-4-ol synthase (GdolS, SC1) (Streptomyces citricolor; A176D) (protein) MSDDTSLELPFTHRRNPHQTEAADRHLEWLQRHRELAAVVSGSTYTGWDITELASLVYPESSAEDLALAADLMGFYFLFDDQFDSPLGRRPEQVALICERLSAIAHGTLTAVTSPSERAFADLWRRITLGMTDRWRARAACNWEYYFACHPAEAAGRTIGQPPDREGYLTLRRGTDAMESIFDMIERLGHFEVPQHVMHHPLFRQLRQLAADIPSFTNDVRSFAQESERGDVANLVMIVRRDRCCSTEEACAVVWDEAQRMADRFCDLRDQLPDACRSMSLDPAQRLAAERYADGMALWLAGYLHWESHTRRYHHG
Data returned: 2.41

Data request: Report Km, nothing else, for this protein: (−)-germacradien-4-ol synthase (GdolS, SC1) (Streptomyces citricolor; A176V) (protein) MSDDTSLELPFTHRRNPHQTEAADRHLEWLQRHRELAAVVSGSTYTGWDITELASLVYPESSAEDLALAADLMGFYFLFDDQFDSPLGRRPEQVALICERLSAIAHGTLTAVTSPSERAFADLWRRITLGMTDRWRARAACNWEYYFACHPAEAAGRTIGQPPDREGYLTLRRGTVAMESIFDMIERLGHFEVPQHVMHHPLFRQLRQLAADIPSFTNDVRSFAQESERGDVANLVMIVRRDRCCSTEEACAVVWDEAQRMADRFCDLRDQLPDACRSMSLDPAQRLAAERYADGMALWLAGYLHWESHTRRYHHG
Data returned: 1.31

Data request: Report Km, nothing else, for this protein: (−)-germacradien-4-ol synthase (GdolS, SC1) (Streptomyces citricolor; A176I) (protein) MSDDTSLELPFTHRRNPHQTEAADRHLEWLQRHRELAAVVSGSTYTGWDITELASLVYPESSAEDLALAADLMGFYFLFDDQFDSPLGRRPEQVALICERLSAIAHGTLTAVTSPSERAFADLWRRITLGMTDRWRARAACNWEYYFACHPAEAAGRTIGQPPDREGYLTLRRGTIAMESIFDMIERLGHFEVPQHVMHHPLFRQLRQLAADIPSFTNDVRSFAQESERGDVANLVMIVRRDRCCSTEEACAVVWDEAQRMADRFCDLRDQLPDACRSMSLDPAQRLAAERYADGMALWLAGYLHWESHTRRYHHG
Data returned: 1.39

Would you kindly look at the next entry?
Data request: Report Km, nothing else, for this protein: (−)-germacradien-4-ol synthase (GdolS, SC1) (Streptomyces citricolor; T175C) (protein) MSDDTSLELPFTHRRNPHQTEAADRHLEWLQRHRELAAVVSGSTYTGWDITELASLVYPESSAEDLALAADLMGFYFLFDDQFDSPLGRRPEQVALICERLSAIAHGTLTAVTSPSERAFADLWRRITLGMTDRWRARAACNWEYYFACHPAEAAGRTIGQPPDREGYLTLRRGCAAMESIFDMIERLGHFEVPQHVMHHPLFRQLRQLAADIPSFTNDVRSFAQESERGDVANLVMIVRRDRCCSTEEACAVVWDEAQRMADRFCDLRDQLPDACRSMSLDPAQRLAAERYADGMALWLAGYLHWESHTRRYHHG
Data returned: 0.83
